Test system: tet operator sequence
Test: β-galactosidase activity of a tetracycline-regulated promoter in transformed E. coli with revTetR, in the presence and absence of anhydrotetracycline (atc)
Type: cell-based, Escherichia coli
Conditions: RevTetR isolate cultured in the presence of anhydrotetracycline (ATC)
MEASURED_PROPERTY: β-Galactosidase Activity, Cultured With ATC
Lab note: jot the number down without any unit.

IN: Which β-Galactosidase Activity, Cultured With ATC value is on record for TetRrevAD2/13: revTetR(BD) E19D V20E E23K V57L I59N L60F A61A (protein, Modified tetracycline repressor, revTetR(BD) E19D V20E E23K V57L I59N L60F A61A) MSRLDKSKVINSALELLNDEGIKGLTTRKLAQKLGVEQPTLYWHVKNKRALLDALALENFARHHDYSLPAAGESWQSFLRNNAMSFRRALLRYRDGAKVHLGTRPDEKQYDTVETQLRFMTENGFSLRDGLYAISAVSHFTLGAVLEQQEHTAALTDRPAAPDENLPPLLREALQIMDSDDGEQAFLHGLESLIRGFEVQLTALLQIV ?
OUT: 1.3355

IN: What value of β-Galactosidase Activity, Cultured With ATC has been recorded for this entry: TetRrev96/99-14: revTetR(BD) G96N V99N (protein, Modified tetracycline repressor, revTetR(BD) G96N V99N) MSRLDKSKVINSALELLNEVGIEGLTTRKLAQKLGVEQPTLYWHVKNKRALLDALAVEILARHHDYSLPAAGESWQSFLRNNAMSFRRALLRYRDNAKNHLGTRPDEKQYDTVETQLRFMTENGFSLRDGLYAISAVSHFTLGAVLEQQEHTAALTDRPAAPDENLPPLLREALQIMDSDDGEQAFLHGLESLIRGFEVQLTALLQIV
OUT: 14.693
